Consider the following binders and their measured pIC50 readings.
Biological target: T1, full-length beta-Catenin (Uniprot ID P35222) (Homo sapiens (Human), UniProt P35222 1-781)
T1 construct: also called bCat; B-Catenin
T1 sequence: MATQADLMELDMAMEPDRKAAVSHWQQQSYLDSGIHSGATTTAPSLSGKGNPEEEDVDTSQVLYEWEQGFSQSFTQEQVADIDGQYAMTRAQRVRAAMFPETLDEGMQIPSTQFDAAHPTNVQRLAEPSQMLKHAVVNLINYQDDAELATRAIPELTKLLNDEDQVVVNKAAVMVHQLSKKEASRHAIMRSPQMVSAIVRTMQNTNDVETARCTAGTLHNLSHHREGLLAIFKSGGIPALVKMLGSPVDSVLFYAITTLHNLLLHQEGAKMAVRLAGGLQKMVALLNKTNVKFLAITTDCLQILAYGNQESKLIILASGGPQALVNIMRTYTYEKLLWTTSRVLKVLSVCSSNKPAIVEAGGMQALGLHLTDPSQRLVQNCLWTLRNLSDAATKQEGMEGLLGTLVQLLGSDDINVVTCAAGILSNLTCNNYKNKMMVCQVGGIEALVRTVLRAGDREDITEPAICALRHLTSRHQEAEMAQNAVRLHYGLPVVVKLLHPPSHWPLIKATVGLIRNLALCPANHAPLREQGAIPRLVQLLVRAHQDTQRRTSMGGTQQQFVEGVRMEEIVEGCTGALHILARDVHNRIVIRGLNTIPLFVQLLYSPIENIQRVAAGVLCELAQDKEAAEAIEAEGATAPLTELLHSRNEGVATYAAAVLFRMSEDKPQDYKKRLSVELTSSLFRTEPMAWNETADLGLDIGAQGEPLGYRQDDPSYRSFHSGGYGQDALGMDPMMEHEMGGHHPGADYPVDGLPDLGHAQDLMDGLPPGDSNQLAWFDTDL
Test: fluorescence polarization competition; full-length beta-catenin with 5FAM-TCF4(10-53) probe as competitor
pIC50: −log10 of the molar value. Starred links: 1 amine or outer side, 2 acyl side, 3 side chain; linkers in the order of their positions; H or OH if unused. Positions of bridges follow the written chain, without caps; N, C: chain ends. Non-standard residues stand in square brackets, D forms with d. Primed or numbered codes have the meaning given here. B5(4) = 2,2-bis(4-pentenyl)glycine = 2-amino-2-(pent-4-en-1-yl)hept-6-enoic acid (stitching residue), C=CCCCC(CCCC=C)(N[*:1])C(=O)[*:2]; Bta = N[C@@H](Cc1csc2ccccc12)C(=O)O; αAllylPro = C=CC[C@@]1(C(=O)O)CCCN1; S8 = C=CCCCCCC[C@](C)(N)C(=O)O

binder | pIC50
Ac-[αAllylPro]DL[B5(4)]DEAAFN[S8]F[Bta]N-NH2 (staple 1-4, 4-11; also: olefin E/Z not assigned, later-eluting staple isomer, Stapled peptide; also called Ac-PL3-Asp-Leu-B5-Asp-Glu-Ala-Ala-Phe-Asn-S8-Phe-BztA-Asn-NH2) [I-753] | 7.85
Ac-[αAllylPro]DL[B5(4)]DEAAFN[S8]F[Bta][dN]-NH2 (staple 1-4, 4-11; also: later eluting HPLC peak (staple isomer), Stapled peptide; also called Ac-PL3-Asp-Leu-B5-Asp-Glu-Ala-Ala-Phe-Asn-S8-Phe-BztA-dAsn-NH2) [I-758] | 7.33
Ac-[αAllylPro]DL[B5(4)]DEAAFN[S8]F[Bta]S-NH2 (staple 1-4, 4-11; also: olefin E/Z not assigned, later-eluting staple isomer, Stapled peptide; shares its description with I-750, later eluting HPLC peak (staple isomer composition); also called Ac-PL3-Asp-Leu-B5-Asp-Glu-Ala-Ala-Phe-Asn-S8-Phe-BztA-Ser-NH2) [I-751] | 7.54
Ac-[αAllylPro]DL[B5(4)]DEAAFN[S8]F[Bta][dT]-NH2 (staple 1-4, 4-11; also: later eluting HPLC peak (staple isomer), Stapled peptide; also called Ac-PL3-Asp-Leu-B5-Asp-Glu-Ala-Ala-Phe-Asn-S8-Phe-BztA-dThr-NH2) [I-755] | 7.06
